Each record here notes measured intracellular MIC.
# System: Salmonella enterica serovar Typhimurium SL1344
# measurement_notes: intracellular MIC (10-fold luminescence reduction); higher = less potent
# condition_set: RAW264.7 macrophages
Structures can show the parent of a compound that is named as a salt.

Guide cases for intracellular MIC, answers given:
compound | intracellular MIC
CC1CCc2cc(F)cc3c(=O)c(C(=O)O)cn1c23 (stereo not given) | > 50 µM
COC(=O)C1=C(C)NC(C)=C(C(=O)OCC(C)C)C1c1ccccc1[N+](=O)[O-] (stereo not given) | > 50 µM
CCn1cc(C(=O)O)c(=O)c2cc(F)c(N3CCNCC3)nc21 | 3.13 µM
CO[C@H]1/C=C/O[C@@]2(C)Oc3c(C)c(O)c4c(O)c(c(/C=N/N5CCN(C)CC5)c(O)c4c3C2=O)NC(=O)/C(C)=C\C=C\[C@H](C)[C@H](O)[C@@H](C)[C@@H](O)[C@@H](C)[C@H](OC(C)=O)[C@@H]1C | ≤ 0.78 µM
C=C1c2c(Cl)ccc(O)c2C(=O)C2=C(O)[C@]3(O)C(=O)C(C(N)=O)=C(O)[C@@H](N(C)C)[C@@H]3[C@@H](O)[C@H]12.O=C(O)c1cc(S(=O)(=O)O)ccc1O [MECLOCYCLINE SULFOSALICYLATE] | 3.13 µM

(Q) Recall the recorded intracellular MIC for "C[CH2][Hg][S]c1ccccc1C(=O)[O-].[Na+]" with Salmonella enterica serovar Typhimurium SL1344 and state it.
(A) ≤ 0.78 µM

(Q) Recall the recorded intracellular MIC for CN1CCC(=C2c3ccccc3C=Cc3ccccc32)CC1 [CYPROHEPTADINE HYDROCHLORIDE] with Salmonella enterica serovar Typhimurium SL1344 and state it.
(A) > 50 µM

(Q) Recall the recorded intracellular MIC for CCOc1ccc(Cc2nccc3cc(OCC)c(OCC)cc23)cc1OCC [ETHAVERINE HYDROCHLORIDE] with Salmonella enterica serovar Typhimurium SL1344 and state it.
(A) > 50 µM

(Q) Recall the recorded intracellular MIC for "O=[N+]([O-])c1ccc(O)c2ncccc12" with Salmonella enterica serovar Typhimurium SL1344 and state it.
(A) > 50 µM

###

# Test system: Salmonella enterica serovar Typhimurium SL1344
# condition_set: MHB
Counter-ions that a name gives are not always drawn.
measured_parameter: MIC

Guide cases for MIC, answers given:
compound | MIC
O=C1OCCN1/N=C/c1ccc([N+](=O)[O-])o1 | 12.5 µM
CC(C)NC(=N)NC(=N)Nc1ccc(Cl)cc1 [CHLOROGUANIDE HYDROCHLORIDE] | > 50 µM
CCn1cc(C(=O)O)c(=O)c2cc(F)c(N3CCNCC3)nc21 | ≤ 0.78 µM
CO/N=C1\CN(c2nc3c(cc2F)c(=O)c(C(=O)O)cn3C2CC2)CC1CN (stereo not drawn) [GEMIFLOXACIN MESYLATE] | ≤ 0.78 µM
Oc1c(Br)cc(Br)c2cccnc12 | 50 µM
Cc1nc2ccccc2n1Cc1ccc(Cl)cc1 | > 50 µM

(Q) Returns the measured MIC for the input compound. Input: COc1c(N2C[C@@H]3CCCN[C@@H]3C2)c(F)cc2c(=O)c(C(=O)O)cn(C3CC3)c12 [MOXIFLOXACIN HYDROCHLORIDE]
(A) > 50 µM

(Q) Returns the measured MIC for the input compound. Input: C[C@]12CC[C@@H]3c4ccc(OC(=O)c5ccccc5)cc4CC[C@H]3[C@@H]1CC[C@@H]2O [ESTRADIOL BENZOATE]
(A) > 50 µM
